Hello, the source for this data is PubChem BioAssay, in case you need it.

# assayedTarget: Homeobox protein Hox-A13 (Mus musculus) (UniProt Q62424)
# Sequence (Q62424 whole entry, looked up): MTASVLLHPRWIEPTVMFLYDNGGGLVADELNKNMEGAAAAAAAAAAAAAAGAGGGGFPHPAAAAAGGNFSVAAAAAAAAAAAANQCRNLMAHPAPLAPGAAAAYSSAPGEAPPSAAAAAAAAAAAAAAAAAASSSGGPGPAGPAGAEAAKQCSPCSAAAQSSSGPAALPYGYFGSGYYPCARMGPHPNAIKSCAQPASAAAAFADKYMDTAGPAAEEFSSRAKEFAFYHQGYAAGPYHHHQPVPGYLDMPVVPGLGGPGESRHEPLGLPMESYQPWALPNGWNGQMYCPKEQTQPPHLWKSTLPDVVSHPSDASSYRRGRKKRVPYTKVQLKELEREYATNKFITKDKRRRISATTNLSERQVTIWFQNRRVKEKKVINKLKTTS
# test: inhibitors of HoxA13-DNA binding, primary screen, biochemical, fluorescence polarization, labeled oligonucleotide (AID 1185)
# conditionParameters: 15 min, higher = more signal, called active from +8 up or from −8 down
Consider the following compounds and their measured z-score readings.
Answer with a number only.

A selection of reference data follows.
Lab note: record z-score of `COCCOC(=O)N1C(=O)[C@@]2(c3cc(C#Cc4ccc(OC)cc4)ccc31)[C@H](C(=O)Nc1nc3ccccc3s1)[C@H]1C(=O)O[C@H](c3ccccc3)[C@H](c3ccccc3)N1[C@@H]2c1ccc(OCCO)cc1` tested on Homeobox protein Hox-A13 (Mus musculus) (UniProt Q62424).
2.34

Under Homeobox protein Hox-A13 (Mus musculus) (UniProt Q62424), report z-score for `C=CCNC(=O)[C@H]1[C@@H]2C(=O)O[C@@H](c3ccccc3)[C@@H](c3ccccc3)N2[C@@H](c2ccc(O)cc2)[C@]12C(=O)N(C(=O)OCCOC)c1ccccc12`
-3.73

// fetch z-score; item: `Cc1ccc(S[C@]2(C(=O)NCC(F)(F)F)CC(=O)N(Cc3ccccc3C(F)(F)F)[C@@H]2c2ccc(CO)cc2I)cc1` ; system: Homeobox protein Hox-A13 (Mus musculus) (UniProt Q62424)
-2.45

Next:
# return z-score of O=C1C2C=CC(C(O)c3ccc(F)cc3)N(n3cnnc3)C2C(=O)N1Cc1ccccc1 (centres undefined) (system: Homeobox protein Hox-A13 (Mus musculus) (UniProt Q62424))
-0.994

Under Homeobox protein Hox-A13 (Mus musculus) (UniProt Q62424): report z-score of `COc1cc(CO)cc(I)c1O[C@H]1C=C(C(=O)NCCO)C[C@@H](NCc2ccc(F)cc2)[C@@H]1O` .
-7.05

Write down measured z-score (Homeobox protein Hox-A13 (Mus musculus) (UniProt Q62424)) for this compound. `COCCOC(=O)N1C(=O)[C@@]2(c3cc(C#CCCO)ccc31)[C@H](C(=O)Nc1nc3ccccc3s1)[C@H]1C(=O)O[C@H](c3ccccc3)[C@H](c3ccccc3)N1[C@@H]2c1ccccc1OCCO`
2.62

----------
This section presents compounds with their documented composite z-score values.
# test: small-molecule microarray binders of probe aWnt5a, primary screen, biochemical, biotinylated probe, 635/667 nm fluorescence (AID 1113);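 note: score merges 667 nm fluorescence intensity with signal-to-noise per printed feature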
# conditionParameters: higher = more signal
Write no unit; give the number alone.

Tell me composite z-score reported for `Cc1ccc(S[C@]2(C(=O)O)CC(=O)N(Cc3cc(C(F)(F)F)cc(C(F)(F)F)c3)[C@@H]2c2ccc(CO)cc2)cc1`
-0.226

Complete the entry with composite z-score for `CCC[C@@H]1C[C@@]1(CCC)[C@@H](NC(=O)OCc1ccccc1)c1ccc(-c2ccccc2)cc1`
-0.0026

Note down composite z-score recorded for `CCCCO[C@H]1C[C@H]2C(I)=C[C@@H]1C(=O)[C@]21CO1`
-0.0735

Return the recorded composite z-score value; entry: CC(CO)N1C(=O)[C@@H]2[C@H]3C(=O)OCC=C[C@H]3OC23C=CCN(Cc2ccccc2)C(=O)[C@@H]13 (some centres not stated)
0.206

Next:
Write down composite z-score measured for item `COc1ccc([Si](C)(C)[C@H]2[C@H](CC(=O)N(CCO)Cc3ccccc3)O[C@@]3(C(=O)N(Cc4cccc(N5CCOC5=O)c4)c4ccccc43)[C@@H]2C)cc1`
-0.154

Give the value of composite z-score reported for the following: `CCOC(=O)C1=CC[C@@H](c2ccc(OCc3ccccc3)c(OC)c2)N(S(=O)(=O)c2ccc(C)cc2)[C@H]1c1ccc(SC)cc1`
0.155

Give the reported value of composite z-score for this record: `C=CCOC(=O)[C@H]1[C@@H]2C(=O)O[C@@H](c3ccccc3)[C@@H](c3ccccc3)N2[C@@H](c2ccc(OCCOC(=O)[C@H]3C[C@H]4C(=O)N[C@@H](CCCCNC(C)=O)C(=O)N4[C@H]3c3ccc(O)cc3)cc2)[C@]12C(=O)Nc1ccccc12`
-0.124

----------
# assayedTarget: Torsin-1A (Homo sapiens) (UniProt O14656)
# Sequence (O14656 whole entry, looked up): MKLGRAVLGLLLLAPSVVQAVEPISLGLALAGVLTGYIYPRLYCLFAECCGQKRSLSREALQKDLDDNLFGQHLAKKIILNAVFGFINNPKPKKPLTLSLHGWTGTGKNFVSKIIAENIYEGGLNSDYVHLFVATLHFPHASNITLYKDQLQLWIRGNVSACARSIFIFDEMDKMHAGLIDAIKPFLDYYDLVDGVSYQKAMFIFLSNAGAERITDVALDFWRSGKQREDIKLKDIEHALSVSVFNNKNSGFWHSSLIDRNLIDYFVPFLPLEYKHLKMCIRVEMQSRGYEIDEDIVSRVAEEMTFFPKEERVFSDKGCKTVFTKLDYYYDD
# test: torsin A binders from cell lysate, primary screen, small-molecule microarray, wild-type, 635/667 nm (AID 1149)
# conditionParameters: COS7 hTOR1A-WT lysate, 635 nm fluorescence, higher = more signal
Property: composite z-score; scope: individual compounds
In your answer, state the number alone without any accompanying words.

Below: 10 compounds and their reported composite z-score.
Tell me measured composite z-score for `COCCOC(=O)N1C(=O)[C@@]2(c3cc(C#CCCO)ccc31)[C@H](C(=O)Nc1nc3ccccc3s1)[C@H]1C(=O)O[C@H](c3ccccc3)[C@H](c3ccccc3)N1[C@@H]2c1ccccc1OCCO` please.
0.759

Provide only the value of recorded composite z-score for CCOC(=O)C1CCCCN1 (stereo not given)
0.544

Look up and state reported composite z-score for CC(C)N1CC=CC23O[C@@H]4C=CCOC(=O)[C@@H]4[C@H]2C(=O)N(CCCO)[C@@H]3C1=O (stereo not given in full)
1.12

Provide measured composite z-score value, entry: C=CCC(OC(C)=O)[C@@H]1[C@@H](N(Cc2cc3ccccc3o2)C(=O)c2ccc(-c3ccccc3)cc2)c2cc(OCCCO)ccc2N1C(=O)c1ccc2ccccc2c1 (stereo not given in full)
0.0664

Identify composite z-score associated with the compound Cc1cc(C)c(C(O)C2C=CC3C(=O)N(c4ccccc4)C(=O)C3N2Nc2ccc(C(C)C)cc2)c(C)c1 (stereo not given)
0.385

Give the measured composite z-score for CC(C)(C)N1CC=CC23O[C@@H]4C=CCOC(=O)[C@@H]4[C@H]2C(=O)N(CCCCCCO)[C@@H]3C1=O (stereo not given in full)
-0.191

Item `C=CCN1C(=O)[C@@]2(CCS(=O)(=O)c3ccccc3)N=C(c3ccc(OCCCO)cc3)O[C@H]2c2ccccc21` : provide composite z-score
1.16

Identify the reported composite z-score for the following entry. `COc1ccc(C#Cc2ccc3c(c2)[C@]2(C(=O)N3)[C@H](c3ccc(O)cc3)N3[C@H](c4ccccc4)[C@H](c4ccccc4)OC(=O)[C@H]3[C@@H]2C(=O)O)cc1`
0.0897

Tell us which composite z-score value is on record for `COC(=O)[C@@]1(Cc2ccccc2N=[N+]=[N-])N=C(c2ccc(OCCCO)cc2)O[C@H]1c1ccccc1N=[N+]=[N-]`
-0.266

Quickly give me recorded composite z-score for O=C1NC(=O)C2C1C=CC(C(O)CCc1ccccc1)N2Nc1ccc(Cl)cc1Cl (stereo not given)
0.689

More entries:
Answer with the recorded composite z-score of `O=C1O[C@H](c2ccccc2)[C@H](c2ccccc2)N2[C@H]1[C@@H](C(=O)N1CCN(c3ncccn3)CC1)[C@]1(C(=O)Nc3ccc(C#CC4(O)CCCCCC4)cc31)[C@H]2c1ccc(OCCO)cc1` only.
0.801

For the compound `[N-]=[N+]=Nc1ccccc1[C@H]1OC(c2ccc(OCCCO)cc2)=N[C@@]1(CCS(=O)(=O)c1ccccc1)C(=O)NCCN1CCOCC1` , give its measured composite z-score value.
0.484

Let me know recorded composite z-score for `C=C[C@@H](COC(C)=O)N(C(=O)OC(C)(C)C)S(=O)(=O)c1ccc(Br)cc1` , thanks.
0.814

State its composite z-score for this compound: CC(CO)N1C(=O)[C@@H]2[C@H]3C(=O)OCC=C[C@H]3OC23C=CCN(CCN2CCOCC2)C(=O)[C@@H]13 (stereo not given in full)
-0.829

# return recorded composite z-score for input `COC(=O)CCCCCCC(=O)Nc1ccc(NC(=O)CCCC[P+](c2ccccc2)(c2ccccc2)c2ccccc2)cc1`
0.463

----------
# test: Plasmodium falciparum growth inhibition, primary screen, strain 3D7, DAPI fluorescence, 100 nL (AID 1184);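 note: parasites grown inside human red blood cells in medium with human serum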
# conditionParameters: P. falciparum 3D7 growth, 3 d, higher = more signal
# label = 1 (yes) if z-score >= -0.5 else 0 (no)

I'd appreciate it if you could say whether `COC(=O)[C@@]1(Cc2ccccc2)[C@H]2c3cc(C(=O)N(C)C)n(Cc4c(CO)[nH]cc(C)c4=O)c3C[C@H]2CN1C(=O)c1ccccc1` has z-score at least equal to -0.5.
0 (no)

----------
Consider the following compounds and their measured composite z-score readings.
# assayedTarget: Fibroblast growth factor 2 (Homo sapiens)
# test: FGF2 binders on small-molecule microarrays, primary screen, biochemical, small-molecule microarray, 635/667 nm fluorescence (AID 1133)
# conditionParameters: small-molecule microarray binding, FGF2, fluorescence 635/667; higher = more signal

Would you please look over these solved cases?
Please supply the value of reported composite z-score for the item `Cc1ccc(S[C@]2(C(=O)O)CC(=O)N(Cc3cc(C(F)(F)F)cc(C(F)(F)F)c3)[C@@H]2c2ccc(CO)cc2)cc1`
-0.897

Hello, please tell me recorded composite z-score for this one: `COC(=O)[C@@]1(Cc2ccc(F)cc2)[C@H]2c3cc(C(=O)N4CCCC4)n(CCc4ccc(O)c(O)c4)c3C[C@H]2CN1C(=O)c1ccccc1`
-0.751

Note composite z-score for the compound shown: `CN(C)CCCNC(=O)[C@@]1(C)c2ccccc2C(=O)N(Cc2ccccc2)[C@H]1c1ccc(CO)cc1`
-0.0132

Assign composite z-score to the following record: `COc1ccc(NC(=O)O[C@H]2[C@H](OC(=O)Nc3ccccc3)[C@H](OC(=O)Nc3ccccc3)[C@@H](OC)O[C@@H]2CO)cc1`
1.45

Given `C=C(/C(=C/C[C@H](OC(=O)c1ccncc1)c1ccc(CO)o1)c1cc(C(=O)OC)ccc1OC)C(C)C` , respond with its composite z-score.
1.21

Read off the recorded composite z-score for `CO[C@]12C=C(Br)[C@@H](C[C@@H]1c1cccc(C)c1)[C@@]1(CO1)C2=O`
0.391

Further cases:
Specify measured composite z-score for CC1CC/C=C\[C@H]2OC34C=CCN(c5ccc(Cl)cc5)C(=O)[C@H]3N(CCCCCO)C(=O)[C@]4(C)C2C(=O)O1 (some centres not stated) .
-1.04
